Some binders, each annotated with its measured koff.
molecular target: T1, human PD-L1 (construct not stated) (human, UniProt Q9NZQ7 19-239, limits assumed); test: BLI Octet Red 96, affinity ranking
T1 construct: also called B7-H1 (PD-L1); PD-L1 protein
T1 sequence (Q9NZQ7 19-239 limits assumed): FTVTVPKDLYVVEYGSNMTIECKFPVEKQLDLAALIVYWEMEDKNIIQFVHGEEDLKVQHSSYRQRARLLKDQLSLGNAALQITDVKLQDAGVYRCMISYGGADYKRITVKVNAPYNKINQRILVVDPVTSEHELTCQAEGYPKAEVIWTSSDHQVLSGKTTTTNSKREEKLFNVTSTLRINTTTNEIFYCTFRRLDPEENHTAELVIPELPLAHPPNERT

- Binder: "Hu1210-8 (antibody, V domains shown, Hu1210 VH.1a x Vk.1a; human gamma 1 / kappa constant domains) VH: EVQLVESGGGLVKPGGSLRLSCAASGFTFSSYDMSWVRQAPGKGLEWVATISDGGGYIYYSDSVKGRFTISRDNAKNSLYLQMNSLRAEDTAVYYCAREFGKRYALDYWGQGTTVTVSS VL: DIQMTQSPSSLSASVGDRVTITCKASQDVTPAVAWYQQKPGKSPKLLIYSTSSRYTGVPSRFSGSGSGTDFTFTISSLQPEDIATYYCQQHYTTPLTFGQGTKLEIK"
  Unit info: "s⁻¹"
  koff: 0.000127
- Binder: "Hu1210-1 (antibody, V domains shown, Hu1210 VH.1 x Vk.1) VH: EVQLVESGGGLVKPGGSLRLSCAASGFTFSSYDMSWVRQAPGKGLEWVSTISDGGGYIYYSDSVKGRFTISRDNAKNSLYLQMNSLRAEDTAVYYCAREFGKRYALDYWGQGTTVTVSS VL: DIQMTQSPSSLSASVGDRVTITCKASQDVTPAVAWYQQKPGKAPKLLIYSTSSRYTGVPSRFSGSGSGTDFTFTISSLQPEDIATYYCQQHYTTPLTFGQGTKLEIK"
  Unit info: "s⁻¹"
  koff: 0.000302
- Binder: "Hu1210-4 (antibody, V domains shown, Hu1210 VH.2 x Vk.1; human gamma 1 / kappa constant domains) VH: EVQLVESGGGLVKPGGSLRLSCAASGFTFSSYDMSWIRQAPGKGLEWVSTISDGGGYIYYSDSVKGRFTISRDNAKNSLYLQMNSLRAEDTAVYYCAREFGKRYALDYWGQGTTVTVSS VL: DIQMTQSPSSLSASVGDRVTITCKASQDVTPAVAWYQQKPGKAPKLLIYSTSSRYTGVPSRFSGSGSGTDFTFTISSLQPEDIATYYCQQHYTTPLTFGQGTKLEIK"
  Unit info: "s⁻¹"
  koff: 0.000546
